- system.under.test: Peroxisome proliferator-activated receptor gamma (Homo sapiens, UniProt P37231)
- Sequence (P37231 whole entry, the tested form may be a part): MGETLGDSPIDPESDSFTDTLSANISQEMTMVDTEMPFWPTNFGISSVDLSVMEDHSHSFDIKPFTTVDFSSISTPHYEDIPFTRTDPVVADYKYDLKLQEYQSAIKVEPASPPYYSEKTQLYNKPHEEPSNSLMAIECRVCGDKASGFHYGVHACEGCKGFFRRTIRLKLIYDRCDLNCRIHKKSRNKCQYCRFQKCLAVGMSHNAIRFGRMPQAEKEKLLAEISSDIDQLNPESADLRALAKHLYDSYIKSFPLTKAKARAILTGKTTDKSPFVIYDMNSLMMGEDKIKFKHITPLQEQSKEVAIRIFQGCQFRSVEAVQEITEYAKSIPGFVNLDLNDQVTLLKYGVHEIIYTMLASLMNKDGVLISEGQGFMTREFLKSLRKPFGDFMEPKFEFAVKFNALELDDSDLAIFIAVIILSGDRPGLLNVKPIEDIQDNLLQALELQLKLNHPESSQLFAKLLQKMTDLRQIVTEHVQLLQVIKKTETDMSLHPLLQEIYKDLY
- test.name: Agonist activity at human GAL4 fused PPARgamma-LBD expressed in HEK293 cells after 18 hrs by luciferase reporter gene assay
pEC50 by entry:
As a rule, pEC50 stands for the negative log10 of the concentration, concentration in M.

[
  {
    "compound": "O=C(O)CC1COc2cc(OCCCOc3ccccc3)ccc21 (centres undefined)",
    "pEC50": 5.28
  },
  {
    "compound": "O=C(O)CC1COc2cc(OCCCOc3cccc(-c4ccccc4)c3)ccc21 (centres undefined)",
    "pEC50": 5.73
  },
  {
    "compound": "Cc1cccc(OCCCOc2ccc3c(c2)OCC3CC(=O)O)c1 (centres undefined)",
    "pEC50": 5.76
  },
  {
    "compound": "CC(C)(C)c1cccc(OCCCOc2ccc3c(c2)OCC3CC(=O)O)c1 (centres undefined)",
    "pEC50": 5.76
  },
  {
    "compound": "O=C(O)CC1COc2cc(OCCCOc3ccc(-c4ccccc4)cc3)ccc21 (centres undefined)",
    "pEC50": 5.53
  }
]

Here is the next item to consider.
Form field: reported pEC50 of O=C(O)CC1COc2cc(OCCCOc3ccccc3F)ccc21 (centres undefined) 5.57

---

pEC50 by entry:
- system.under.test: Free fatty acid receptor 1 (Homo sapiens, UniProt O14842)
- Sequence (O14842 whole entry): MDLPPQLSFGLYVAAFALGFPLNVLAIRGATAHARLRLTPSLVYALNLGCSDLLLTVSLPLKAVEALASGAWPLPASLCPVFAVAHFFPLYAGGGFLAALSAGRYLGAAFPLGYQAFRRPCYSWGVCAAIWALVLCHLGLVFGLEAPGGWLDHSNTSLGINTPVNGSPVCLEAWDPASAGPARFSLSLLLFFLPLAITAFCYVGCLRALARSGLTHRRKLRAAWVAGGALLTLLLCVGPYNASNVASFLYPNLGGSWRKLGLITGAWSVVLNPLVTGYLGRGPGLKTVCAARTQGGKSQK
- test.name: Agonist activity at human FFA1 expressed in CHO cells assessed as increase in intracellular Ca2+ flux after 1 hr by Fluo4-AM dye based FLIPR assay
- Assay type: functional, cell-based
As a rule, pEC50 stands for the negative log10 of the concentration, concentration in M.

Illustrative cases are given below, each with its answer.
[
  {
    "molecule": "CC(C)(C)c1cccc(OCCCOc2ccc3c(c2)OCC3CC(=O)O)c1 (stereo unspecified)",
    "readout.kind": "pEC50",
    "recorded.result": 5.52
  },
  {
    "molecule": "O=C(O)COc1ccc(OCCCOc2cccc(Cl)c2)cc1F",
    "readout.kind": "pEC50",
    "recorded.result": 5.07
  },
  {
    "molecule": "Cc1cccc(OCCCOc2ccc3c(c2)OCC3CC(=O)O)c1 (stereo unspecified)",
    "readout.kind": "pEC50",
    "recorded.result": 5.44
  },
  {
    "molecule": "O=C(O)C[C@@H]1COc2cc(OCCCOc3cccc(Cl)c3)ccc21",
    "readout.kind": "pEC50",
    "recorded.result": 5.62
  }
]

Find the measured pEC50: item O=C(O)CC1COc2cc(OCCCOc3cccc(-c4ccccc4)c3)ccc21 (stereo unspecified) , target or system Free fatty acid receptor 1 (Homo sapiens, UniProt O14842). 5.56

---

EC50 by entry:
- system.under.test: Free fatty acid receptor 1 (Homo sapiens, UniProt O14842)
- test.name: Agonist activity at human FFA1 expressed in CHO cells assessed as increase in intracellular Ca2+ flux after 1 hr by Fluo4-AM dye based FLIPR assay
- Type: functional, cell-based

Illustrative cases are given below, each with its answer.
[
  {
    "compound": "O=C(O)CS(=O)(=O)c1ccc(OCCCOc2cccc(Cl)c2)cc1",
    "recorded.result": "> 10 µM"
  },
  {
    "compound": "[2H]C([2H])(Cc1ccc(OCCCOc2cccc(Cl)c2)cc1)C(=O)O",
    "recorded.result": "3.28 µM"
  },
  {
    "compound": "O=C(O)CC1COc2cc(OCCCOc3cccc(Cl)c3)ccc21 (stereo not drawn)",
    "recorded.result": "3.07 µM"
  },
  {
    "compound": "Cc1ccc(OCCCOc2ccc3c(c2)OCC3CC(=O)O)cc1 (stereo not drawn)",
    "recorded.result": "7.62 µM"
  }
]

Form field: reported EC50 of Cc1ccccc1OCCCOc1ccc2c(c1)OCC2CC(=O)O (stereo not drawn) > 10 µM

Form field: reported EC50 of CC(C)(C)c1cccc(OCCOc2ccc3c(c2)OCC3CC(=O)O)c1 (stereo not drawn) 3.85 µM

Form field: reported EC50 of O=C(O)CC1COc2cc(OCCCOc3ccc(-c4ccccc4)cc3)ccc21 (stereo not drawn) 4.26 µM

Form field: reported EC50 of O=C(O)CC1COc2cc(OCCCOc3cccc(Br)c3)ccc21 (stereo not drawn) 3.45 µM

Data provenance: ChEMBL document CHEMBL4265981
